# Test system: biotinyl-Trp-oxazolone
# Procedure Summary: self-aminoacylation, catalytic enhancement (BWO) (fold over background); higher = more active; k-Seq, kA / k0A0; sequences stand for … in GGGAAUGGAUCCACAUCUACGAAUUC…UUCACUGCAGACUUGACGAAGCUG
This sample holds only a part of the variants without activity.
Readout Kind: self-aminoacylation
Numbers only.

These recorded examples may help you get a feel for the data.
{"Ordered Residues": "AUUACACUGGUCCUCGAGUGA [Fam2.1 aminoacylation ribozyme variant]", "self-aminoacylation": 5.79}
{"Ordered Residues": "AUUACCCUGGACAUCGACUGA [Fam2.1 aminoacylation ribozyme variant]", "self-aminoacylation": 0.238}
{"Ordered Residues": "CCACUCUUCAGGCAAUCGGUC [Fam1B.1 aminoacylation ribozyme variant]", "self-aminoacylation": 1.23}
{"Ordered Residues": "AUUCCCCUGGCCAUCGAGUGA [Fam2.1 aminoacylation ribozyme variant]", "self-aminoacylation": 6.48}
{"Ordered Residues": "AUUCACCUAGGUUAUCCGGUG [Fam2.2 aminoacylation ribozyme variant]", "self-aminoacylation": 5.66}

Below is a list of sequences. For each, state its recorded self-aminoacylation.
1. AUUUCCCUGGUCAUCGAGUGA [Fam2.1 aminoacylation ribozyme variant]
2. GUACUUCAAAAAAUCGGUCUG [Fam1A.1 aminoacylation ribozyme variant]
3. AUUGACCUAGGUUAUCGGGUG [Fam2.2 aminoacylation ribozyme variant]
4. AUAACCCUGGUGAUCGAGUGA [Fam2.1 aminoacylation ribozyme variant]
5. CCACUUCAAACACUCGGUCUG [Fam1A.1 aminoacylation ribozyme variant]
6. CCACACCUCAAGCCAUCGGUC [Fam1B.1 aminoacylation ribozyme variant]
7. AAGUUUGCUAAUGGUCCCAAG [Fam3.1 aminoacylation ribozyme variant]

Out:
1. 16.5
2. 7.93
3. 6.6
4. 7.08
5. 1.5
6. 1.55
7. 1.21

* * *

# Tested on: biotinyl-Ile-oxazolone
# Procedure Summary: self-aminoacylation, catalytic enhancement (BIO) (fold over background); higher = more active; k-Seq, kA / k0A0; sequences stand for … in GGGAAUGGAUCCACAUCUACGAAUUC…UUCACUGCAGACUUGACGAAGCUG
This sample holds only a part of the variants without activity.
Readout Kind: self-aminoacylation
One number for each entry.

Illustrative cases are given below, each with its answer.
{"Ordered Residues": "CAACUUCAAGCAAUCGGUCUG [Fam1A.1 aminoacylation ribozyme variant]", "self-aminoacylation": 1.54}
{"Ordered Residues": "AUUACCCUGGUGAUCCAGUGA [Fam2.1 aminoacylation ribozyme variant]", "self-aminoacylation": 4.33}
{"Ordered Residues": "CUACUUGAAACAAUCCGUCUG [Fam1A.1 aminoacylation ribozyme variant]", "self-aminoacylation": 0.813}
{"Ordered Residues": "AUUACCCUUGUCAUUGAGUGA [Fam2.1 aminoacylation ribozyme variant]", "self-aminoacylation": 4.11}
{"Ordered Residues": "AUUCUCCUAGGUCCUCGGGUG [Fam2.2 aminoacylation ribozyme variant]", "self-aminoacylation": 4.72}
{"Ordered Residues": "CCACACAUCAAGCAAUCGGGC [Fam1B.1 aminoacylation ribozyme variant]", "self-aminoacylation": 2.01}

Required: self-aminoacylation, one value per sequence below.
1. AUAUCCCUGGUCAUCGAGUGA [Fam2.1 aminoacylation ribozyme variant]
2. AUUAACCUGGUCAUCCAGUGA [Fam2.1 aminoacylation ribozyme variant]
3. CCACACUUCAAUCAAUAGGUC [Fam1B.1 aminoacylation ribozyme variant]
4. AUUACCGUGGUCAUAGAGUGA [Fam2.1 aminoacylation ribozyme variant]
5. AAGUUUUCGAAUAGUCGCAAG [Fam3.1 aminoacylation ribozyme variant]
6. AUCCACCUAGGACAUCGGGUG [Fam2.2 aminoacylation ribozyme variant]
7. CUUACCCUGAUCAUCGAGUGA [Fam2.1 aminoacylation ribozyme variant]
8. AUUGCCCUGGUCACCGAGUGA [Fam2.1 aminoacylation ribozyme variant]

Out:
1. 5.36
2. 2.38
3. 0.573
4. 3.67
5. 2.14
6. 3.12
7. 3.64
8. 3.77

Items follow; give self-aminoacylation for each.
1. AGUACCCUGGUCAUCGAUUGA [Fam2.1 aminoacylation ribozyme variant]
2. ACGCACCUAGGUCAUCGGGUG [Fam2.2 aminoacylation ribozyme variant]
3. CUACUUCAUACAAUCGCUCUG [Fam1A.1 aminoacylation ribozyme variant]
4. AUUUCCCUUGUCAUCGAGUGA [Fam2.1 aminoacylation ribozyme variant]

Out:
1: 1.09; 2: 3.42; 3: 0.66; 4: 3.62

* * *

# Test system: biotinyl-Leu-oxazolone
# Procedure Summary: self-aminoacylation, catalytic enhancement (BLO) (fold over background); higher = more active; k-Seq, kA / k0A0; sequences stand for … in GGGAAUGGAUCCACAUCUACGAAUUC…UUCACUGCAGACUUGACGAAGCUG
Variants at the floor of the assay were thinned out.
Would you mind labelling by self-aminoacylation? At or over 2 is yes (1), under is no (0).

Known results for sequences:
{"Ordered Residues": "CCACACUUCAAGCAACCGGAC [Fam1B.1 aminoacylation ribozyme variant]", "Group": "no (0)"}
{"Ordered Residues": "AAGUAUGCUAAUAGACGCAAG [Fam3.1 aminoacylation ribozyme variant]", "Group": "no (0)"}
{"Ordered Residues": "AUUCCCCUAGAUCAUCGGGUG [Fam2.2 aminoacylation ribozyme variant]", "Group": "yes (1)"}

In: Determine whether this sequence has self-aminoacylation no lower than 2: AAGUUUGCUAAUAGUCACGAG [Fam3.1 aminoacylation ribozyme variant]
Out: no (0)

In: # bool: self-aminoacylation of CCACACUUCGAGCAUUCGGUC [Fam1B.1 aminoacylation ribozyme variant] >= 2
Out: no (0)

In: Hello, I need to know if GAACUUCAAACAAUCGGUCUG [Fam1A.1 aminoacylation ribozyme variant] has measured self-aminoacylation not below 2. Thanks!
Out: yes (1)

In: State whether the measured self-aminoacylation reaches 2, counting equality as reaching it, for CCUAACUUCAAGCAAUCGGUC [Fam1B.1 aminoacylation ribozyme variant]
Out: no (0)

In: In plain terms: is recorded self-aminoacylation at least 2 for AUUGACAUAGGUCAUCGGGUG [Fam2.2 aminoacylation ribozyme variant] ?
Out: yes (1)

* * *

# System: biotinyl-Val-oxazolone
# Procedure Summary: self-aminoacylation, catalytic enhancement (BVO) (fold over background); higher = more active; k-Seq, kA / k0A0; sequences stand for … in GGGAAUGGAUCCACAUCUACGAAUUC…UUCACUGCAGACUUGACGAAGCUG
This sample holds only a part of the variants without activity.
Label 1 when self-aminoacylation is at or above 2; otherwise label -1.

{"Ordered Residues": "AUUCCCCUCGUCAUCGAGUGA [Fam2.1 aminoacylation ribozyme variant]", "Group": 1}
{"Ordered Residues": "AAGUUUUCGAAUAGUCGCAAG [Fam3.1 aminoacylation ribozyme variant]", "Group": -1}
{"Ordered Residues": "AUUUACCUAGGGCAUCGGGUG [Fam2.2 aminoacylation ribozyme variant]", "Group": 1}
{"Ordered Residues": "CAGUUUGCCAAUAGUCGCAAG [Fam3.1 aminoacylation ribozyme variant]", "Group": -1}

Turning now to a further sequence:
In: Form field: self-aminoacylation at least 2? Entry: CUACUUGAAACAAUCUGUCUG [Fam1A.1 aminoacylation ribozyme variant]
Out: -1

* * *

# Test system: biotinyl-Met-oxazolone
# Procedure Summary: self-aminoacylation, catalytic enhancement (BMO) (fold over background); higher = more active; k-Seq, kA / k0A0; sequences stand for … in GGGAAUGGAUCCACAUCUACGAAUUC…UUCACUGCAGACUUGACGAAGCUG
Variants at the floor of the assay were thinned out.
Field: self-aminoacylation. Provide a value for each of the sequences that follow.
One number for each entry.

Quick request: self-aminoacylation for each listed item, please.
1. AAGAUUGCUAAUGGUCGCAAG [Fam3.1 aminoacylation ribozyme variant]
2. CUAAUUCAAACAAUUGGUCUG [Fam1A.1 aminoacylation ribozyme variant]
3. ACUACCCUUGUCAUCGAGUGA [Fam2.1 aminoacylation ribozyme variant]
4. AUUACCCUGGCCAGCGAGUGA [Fam2.1 aminoacylation ribozyme variant]
5. CUAUUUCAAACAACCGGUCUG [Fam1A.1 aminoacylation ribozyme variant]
6. AAGUUUGCUAAUAGGCGCUAG [Fam3.1 aminoacylation ribozyme variant]
7. AAGUUUUCUAAUAGUCGCAAG [Fam3.1 aminoacylation ribozyme variant]

Out:
[1.51, 0.776, 6.22, 5, 0.85, 0.723, 1.23]

Field: self-aminoacylation. Fill in for each record below.
1. ACUACCCUGGUCAUCGAGAGA [Fam2.1 aminoacylation ribozyme variant]
2. AUUCACCUAGGUUAUCCGGUG [Fam2.2 aminoacylation ribozyme variant]
3. CUGCUUCAAACAAUAGGUCUG [Fam1A.1 aminoacylation ribozyme variant]
4. AAGUUUGCUAUGAGUCGCAAG [Fam3.1 aminoacylation ribozyme variant]

Out:
1: 2.02; 2: 7.05; 3: 0.551; 4: 0.644

Hello, I would appreciate it if you could give self-aminoacylation for each entry below.
1. CCACAGUUCAAGCAAUCCGUC [Fam1B.1 aminoacylation ribozyme variant]
2. AAGUUAGCAAAUAGUCGCAAG [Fam3.1 aminoacylation ribozyme variant]
3. CUACUUCAAAUAAUCGGUGUG [Fam1A.1 aminoacylation ribozyme variant]
4. CUACUUCAAACAAGCUGUCUG [Fam1A.1 aminoacylation ribozyme variant]
5. UUUACCCUGCUCAUCGAGUGA [Fam2.1 aminoacylation ribozyme variant]
6. CUACUUCAGACAAUCGGACUG [Fam1A.1 aminoacylation ribozyme variant]
7. AAGUUUGCUAAGAGUUGCAAG [Fam3.1 aminoacylation ribozyme variant]

Out:
1. 1.13
2. 1.44
3. 0.983
4. 0.7
5. 2.03
6. 0.586
7. 0.665

Data origin, for the record: the supplement of paper PMC9233669
